Taken from paper PMC7088272.

molecular target: ZIKV NS2B-NS3^pro (Zika virus)
Sequence (A0A024B7W1 1421-1469): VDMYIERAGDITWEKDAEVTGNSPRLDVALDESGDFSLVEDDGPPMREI
Sequence (A0A024B7W1 1503-1688): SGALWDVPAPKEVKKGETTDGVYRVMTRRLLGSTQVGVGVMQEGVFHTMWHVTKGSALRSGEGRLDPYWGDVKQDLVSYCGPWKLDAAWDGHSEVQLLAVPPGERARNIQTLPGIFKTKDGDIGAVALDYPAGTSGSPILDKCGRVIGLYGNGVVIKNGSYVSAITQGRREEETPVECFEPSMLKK
measured metric: pKi
Give bare numbers, as −log10 of the molar value.

Report pKi for `O=c1c(O)c(-c2cc(O)c(O)c(O)c2)oc2cc(O)cc(O)c12` please.
5.05

----------
As an illustration, consider measured pIC50 for compounds on ZIKV NS2B-NS3^pro (Zika virus).
Numbers only, as −log10 of the molar value.

Look over these answered cases.
compound: O=C(O[C@@H]1Cc2c(O)cc(O)cc2O[C@H]1c1cc(O)c(O)c(O)c1)c1cc(O)c(O)c(O)c1 [Gallocatechin gallate]
observed: 4.00
--
compound: O=c1cc(-c2ccc(O)c(O)c2)oc2cc(O)cc(O)c12
observed: 4.28

// below: pIC50 requested for another compound
Report pIC50 for `O=c1c(O[C@@H]2O[C@H](CO)[C@@H](O)[C@H](O)[C@H]2O)c(-c2ccc(O)cc2)oc2cc(O)cc(O)c12` please.
3.95
